Experiment: Urine time course after LSD administration, GC/MS
Type: in vivo
Settings: human, urine sample JS U13, 84 hrs after LSD administration
measure.name: concentration at 84 h

# compound, measured
data = [
    ("CCN(CC)C(=O)[C@@H]1C=C2c3cccc4[nH]cc(c34)C[C@H]2N(C)C1 [LSD, lysergic acid diethylamide]", "0 ng/mL"),
]

* * *

Test: Urine time course after LSD administration, GC/MS
Assay type: in vivo
Conditions: human, urine sample JS U6, 10 hrs after LSD administration

# compound, units.of.measure, concentration at 10 h
records = [
    ("CCN(CC)C(=O)[C@@H]1C=C2c3cccc4[nH]cc(c34)C[C@H]2N(C)C1 [LSD, lysergic acid diethylamide]", "ng/mL", 0.64),
]

* * *

Assay: Urine time course after LSD administration, GC/MS
Type: in vivo
Settings: human, urine sample SW U8, 24 hrs after LSD administration
measure.name: concentration at 24 h (ng/mL)

# compound, measured
rows = [
    ("CCN(CC)C(=O)[C@@H]1C=C2c3cccc4[nH]cc(c34)C[C@H]2N(C)C1 [LSD, lysergic acid diethylamide]", 1.42),
]

* * *

Test: Urine time course after LSD administration, GC/MS
Assay type: in vivo
Conditions: human, urine sample SW U9, 36 hrs after LSD administration

# compound, concentration at 36 h [ng/mL]
data = [
    ("CCN(CC)C(=O)[C@@H]1C=C2c3cccc4[nH]cc(c34)C[C@H]2N(C)C1 [LSD, lysergic acid diethylamide]", 0.11),
]

* * *

Assay: Urine time course after LSD administration, GC/MS
Type: in vivo
Details: human, urine sample SW U12, 72 hrs after LSD administration
measure.name: concentration at 72 h (ng/mL)

# compound, measure.name, measured
measured = [
    ("CCN(CC)C(=O)[C@@H]1C=C2c3cccc4[nH]cc(c34)C[C@H]2N(C)C1 [LSD, lysergic acid diethylamide]", "concentration at 72 h", 0),
]

* * *

Test: Urine time course after LSD administration, GC/MS
Format: in vivo
Details: human, urine sample JS U10, 48 hrs after LSD administration
measure.name: concentration at 48 h

# compound, measure.name, measured
measured = [
    ("CCN(CC)C(=O)[C@@H]1C=C2c3cccc4[nH]cc(c34)C[C@H]2N(C)C1 [LSD, lysergic acid diethylamide]", "concentration at 48 h", "0.01 ng/mL"),
]

* * *

Test: Urine time course after LSD administration, GC/MS
Assay type: in vivo
Details: human, urine sample SW U2, 2 hrs after LSD administration
measure.name: concentration at 2 h (ng/mL)

# compound, units.of.measure, measured
measured = [
    ("CCN(CC)C(=O)[C@@H]1C=C2c3cccc4[nH]cc(c34)C[C@H]2N(C)C1 [LSD, lysergic acid diethylamide]", "ng/mL", 0.33),
]

* * *

Test: Urine time course after LSD administration, GC/MS
Assay type: in vivo
Conditions: human, urine sample JS U5, 8 hrs after LSD administration

# compound, concentration at 8 h
measured = [
    ("CCN(CC)C(=O)[C@@H]1C=C2c3cccc4[nH]cc(c34)C[C@H]2N(C)C1 [LSD, lysergic acid diethylamide]", "0.38 ng/mL"),
]

* * *

Test: Urine time course after LSD administration, GC/MS
Format: in vivo
Details: human, urine sample SW U3, 4 hrs after LSD administration
Experimental: In this example, experiments were performed to better define the time course of excretion of LSD metabolites in urine, and the ability of various immunoassays to detect them. Individuals were administered LSD, and urine samples were collected over a four-day period. […] The samples were also measured using the DPC radioimmunoassay (“Coat-A-Count”® LSD assay, by Diagnostic Products Company) according to manufacturer's directions, and by GC/MS). […]

# molecule, concentration at 4 h [ng/mL]
records = [
    ("CCN(CC)C(=O)[C@@H]1C=C2c3cccc4[nH]cc(c34)C[C@H]2N(C)C1 [LSD, lysergic acid diethylamide]", 0.54),
]
